Task for the reader: assign each of the following compounds its reported TGI.
- Tested on: SNB-19 CNS
- experimental_details: NCI tumour cell line growth inhibition, 48 h
Answer in µM, number only, no unit symbol.

Please indicate TGI recorded for C[CH2][Sn]([CH2]C)([O]C(=O)c1c(F)cccc1F)[O][Sn]([CH2]C)([CH2]C)[O]C(=O)c1c(F)cccc1F
30.8

Please give the documented TGI of CN(C)CC/C(=N\Nc1ccc(Cl)cc1)c1ccccc1
6.91

* * *

Assignment: determine reported TGI for the given compounds.
- Test system: M14 melanoma
- experimental_details: NCI tumour cell line growth inhibition, 48 h

System M14 melanoma. Read-out TGI. Item O=C1C2c3[nH]c4ccccc4c3C3CCCCC3C2C(=O)N1c1ccccc1 (stereo unspecified) . Report value.
> 100 µM

Quote TGI with test system M14 melanoma for Cn1nc(-c2cccc(-c3nn(C)c(=NCCO)s3)n2)sc1=NCCO
> 100 µM

State measured TGI of the compound O=C1C(C=NC(=S)c2ccccc2)=C(O)c2ccccc21 with M14 melanoma.
> 100 µM

Find TGI for Nc1ncnc2c1ncn2C1CC(O)C(CO)O1 (stereo unspecified) on M14 melanoma and write it down.
> 100 µM

# assay system M14 melanoma: give TGI of CC1(C)Oc2ccccc2OC1O (stereo unspecified)
> 100 µM

Give reported TGI for CCCCOC(=O)CC(CC(=O)OCCCC)(OC(C)=O)C(=O)OCCCC (M14 melanoma)
> 200 µM

* * *

- Tested on: MOLT-4 leukemia
- experimental_details: NCI tumour cell line growth inhibition, 48 h
Consider the following compounds; for each one, report its TGI.

Report measured TGI; entry is O=C1C(Cl)C2(CC(/C=C/c3cccs3)=NN2c2cccc(S(=O)(=O)O)c2)N1c1nc2ccccc2s1 (stereo not given)
> 100 µM

// fetch TGI given entry COc1cc(/C=C2\C(=O)Nc3ccccc32)cc(OC)c1O
92.3 µM

Specify measured TGI for Nc1nc(Cl)c(N=Nc2ccc(Cl)cc2)c(NCC2(CO)CCC(CCc3ccccc3)C2)n1 (stereo not given) .
8.49 µM

Find the measured TGI of Cc1cccc2nc3cccc(C(=O)NCCC[N+](C)(CCCNC(=O)c4cccc5nc6cccc(C)c6nc45)Cc4ccc([N+](=O)[O-])n4C)c3nc12 and report it.
26.2 µM

Identify measured TGI associated with CCCCOC(=O)CC(CC(=O)OCCCC)(OC(C)=O)C(=O)OCCCC
> 200 µM

Supply measured TGI of COc1cc(C2Oc3cc(-c4oc5cc(O)cc(O)c5c(=O)c4O)ccc3OC2CO)ccc1O (stereo not given) in your reply.
> 38.9 µM

Give the value of TGI reported for the following: COc1cc([C@@H]2c3cc4c(cc3[C@@H](OC3OC5CO[C@@H](c6cccs6)OC5C(O)C3O)[C@H]3COC(=O)[C@H]23)OCO4)cc(OC)c1O (stereo not given in full)
0.473 µM

Tell me measured TGI for Cc1csc2nc(-c3ccncc3)cn12 please.
> 100 µM

# return recorded TGI for input CCC1OC(=O)CC(O)C(C)C(OC2OC(C)C(O)C(N(C)C)C2O)C(CC=O)CC(C)C(=O)/C=C/C2(C)OC2C1C (stereo not given)
41.2 µM

Tell me measured TGI for N#C/C(=C\c1ccc(Br)cc1)n1nnc2c(F)cccc21 please.
> 100 µM

Give TGI for O=C(c1ccccc1)c1ccc2cccc(OC3OC(CO)C(O)C(O)C3O)c2n1 (stereo not given)
> 100 µM

Identify measured TGI corresponding to COC1=CC(=O)c2c(cc(COP(N)(=O)N(CCBr)CCBr)n2C)C1=O (stereo not given)
> 100 µM

Identify TGI associated with the compound C/C(=C\COP(=O)(O)OP(=O)(O)O)CCCOCc1ccccc1
> 100 µM

Report TGI for O=[N+]([O-])c1nccn1COCCO
> 100 µM

Provide measured TGI value, entry: COc1ccc(/C=C/C(=O)c2sc(NC(=S)NC(=O)c3ccc(Cl)cc3)nc2C)cc1OC
> 100 µM

* * *

- Test system: HOP-92 NSCLC
- experimental_details: NCI tumour cell line growth inhibition, 48 h
Hi there, I'd appreciate the recorded TGI for every entry that follows.

Give reported TGI for CCCCCCCCCCCC(=O)NCc1ccc(OC(=O)CCCCCCCCCCC)c(OC)c1 (HOP-92 NSCLC)
> 100 µM

Look up and report TGI, with HOP-92 NSCLC as system, for CCN(CC)CCN1C(=O)CC2[C@@H]3CCc4cc(OC)ccc4C3CC[C@]2(C)C1=O (stereo partly drawn)
> 100 µM

Enter TGI (test system HOP-92 NSCLC) for CCOC(=O)[C@@H]1[C@@H]2NC(=O)N[C@@]1(C)Oc1ccccc12
> 100 µM

* * *

- Tested on: A549 NSCLC
- experimental_details: NCI tumour cell line growth inhibition, 48 h
property_name: TGI

Input C[C@]12CCC(N3CCCC3)CC1=CC[C@@H]1[C@@H]2CC[C@]2(C)C(O)[C@H](n3ccnc3)C[C@@H]12 (some centres undefined) , output reported TGI.
> 100 µM

Please look at this compound and report its TGI: CC(=O)Nc1ccc(-c2nnc(SCC(=O)Nc3ccccc3)o2)cc1
> 100 µM

For the compound C=CCc1cccc2cc(C(=O)NC3CCCCC3)c(=N)oc12 , give its reported TGI.
> 100 µM

Return reported TGI. Input compound: CN(C)CC/C(=N\Nc1ccc(Cl)cc1)c1ccccc1
3.29 µM

* * *

- Tested on: HCT-116 colon
- experimental_details: NCI tumour cell line growth inhibition, 48 h
Consider the following compounds; for each one, report its TGI.

Give TGI for CC1OC(Oc2c(-c3cc(O)c(O)c(O)c3)oc3cc(O)cc(O)c3c2=O)C(O)C(O)C1O (stereo not drawn)
> 100 µM

Provide measured TGI value, entry: COc1cc(OC)c(/C=C/c2cc[n+](C)c3ccccc23)c(OC)c1
33.7 µM

Please report TGI for the following compound: CSC1N=CNc2c1sc(=S)n2-c1ccccc1 (stereo not drawn)
> 100 µM

* * *

Give TGI for every item shown.
- Tested on: UO-31 renal
- experimental_details: NCI tumour cell line growth inhibition, 48 h

Note down TGI recorded for O=[N+]([O-])c1ccc(C2CC(c3ccc(NCc4nc5ccccc5[nH]4)cc3)=NO2)cc1 (stereo unspecified)
> 100 µM

Give a short answer stating reported TGI for CC(=O)Nc1ccc(-c2nnc(SCC(=O)Nc3ccc(Cl)cc3Cl)o2)cc1 .
> 100 µM

Look up and state reported TGI for O=C(O)c1ccc(NCc2nc3cc(Cl)c(Cl)cc3[nH]2)cc1
> 100 µM

Using the record for Cc1cc2cn3c4ccc(O)cc4nc(N)c3c2cc1C , state its measured TGI.
3.26 µM

Name the recorded TGI of the item C=CCCCCNC(=O)C[C@@H]1C2=C(CC[C@H]1O[Si](C)(C)C(C)(C)C)N1C(=O)CCC/C=C\C1C2 (stereo partly specified) in your answer.
27.2 µM

Tell me TGI reported for COc1cc(C2Oc3cc(-c4oc5cc(O)cc(O)c5c(=O)c4O)ccc3OC2CO)ccc1O (stereo unspecified)
6.81 µM

Return TGI for the following molecule: COC(=O)/C=C1/SC(=Nc2ccc(F)cc2)N(CCc2c[nH]c3ccc(O)cc23)C1=O
> 100 µM

Give the value of TGI reported for the following: c1ccc(-c2nnc(CCCCCCCCc3nnc(-c4ccccc4)o3)o2)cc1
> 100 µM

Give a short answer stating reported TGI for COc1ccc(-c2ccc(-c3ccc(C(=N)N)c(F)c3)s2)cc1 .
2.72 µM

Specify reported TGI for the molecule shown: C=C1C(O)C2C(=C(CCC3CC3)C13CC3)C(=O)C(C)(C)C2O (stereo unspecified)
> 100 µM

Look up and state reported TGI for CCOC(OC1=C(C#N)CCC1)C(C)[Se]c1ccccc1 (stereo unspecified)
67.4 µM

Quickly give me recorded TGI for CSc1nc(NC2OC(COC(C)=O)C(OC(C)=O)C(OC(C)=O)C2OC(C)=O)c(N=CC=Nc2c(NC3OC(COC(C)=O)C(OC(C)=O)C(OC(C)=O)C3OC(C)=O)nc(SC)[nH]c2=O)c(=O)[nH]1 (stereo unspecified)
> 100 µM

Consider the molecule Cn1ccc2c1SSSSS2 and give its recorded TGI.
> 100 µM

Give the measured TGI for CC1=C(C(=O)CC(=O)C(=O)Nc2ccc(Cl)cc2C)Sc2ccccc2N1
> 100 µM

Supply reported TGI belonging to this molecule: O=C(c1ccccc1)c1ccc2cccc(OC3OC(CO)C(O)C(O)C3O)c2n1 (stereo unspecified)
> 100 µM

Please list TGI recorded for the molecule COC(=O)C1[C@@H](C(=O)OC)C(=O)O[C@H]1c1cc(OC)c(OC)c(OC)c1 (stereo partly specified)
> 100 µM

* * *

- Test system: PC-3 prostate
- experimental_details: NCI tumour cell line growth inhibition, 48 h
property_name: TGI

Quote TGI reported for Nc1c(C(=O)c2cccc(OC[C@@H](O)CO)c2)cnn1-c1ccc(F)cc1 please.
> 25 µM

Provide one value: measured TGI of COC(=O)/C=C\[C@H]1[C@H](C)N1S(=O)(=O)c1ccc(C)cc1 (stereo partly specified)
> 100 µM

Quick one: give measured TGI for O=C1Nc2c(Cl)cc(Cl)cc2C1=O
> 100 µM

Complete the entry with TGI for CC(=O)OC1C[C@@H](C)C2(CC(c3ccoc3)OC2=O)C2CCC(O)C3(CO3)C12CO (stereo partly specified)
> 100 µM

Tell me TGI reported for CC1OC(O[C@H]2CC[C@]3(C)[C@H]4CC=C5[C@@H]6[C@@H](C)[C@H](C)CC[C@]6(C(=O)OC6OC(CO)C(O)C(O)C6O)CC[C@@]5(C(=O)O)[C@]4(C)CC[C@H]3C2(C)C)C(O)C(O)C1O (stereo partly specified)
> 100 µM

Return TGI (reported value) for this compound: Cc1cc(=O)[nH]c(S(=O)(=O)NC(=S)Nc2ccc(Cl)cc2)n1
> 100 µM

Please supply the value of reported TGI for the item COc1cc(-c2nc3ccc(N4CCN(C)CC4)cc3[nH]2)c(OC)c2[nH]c(CO)nc12
> 100 µM

Quickly give me recorded TGI for CCCCC(=O)OC[n+]1ccc(-c2c(COC(=O)NC(C)C)c(COC(=O)NC(C)C)c3n2CCC3)cc1
> 100 µM

Name the recorded TGI of the item S=C(Nc1ccccc1)c1ccc(CN2CCCCC2)s1 in your answer.
> 100 µM

Answer with the recorded TGI for the compound listed here: CC(=O)Oc1cc(C(C)C)c(OCCN(C)C)cc1C
> 100 µM

Please indicate TGI recorded for CCn1c(=O)c2cn[nH]c2n(C)c1=O
> 100 µM

// Input: CN(C)CCONC(=O)C12CC3CC(CC(C3)C1)C2 . Output its TGI only.
> 100 µM

Return the recorded TGI value; entry: COc1ccc(C(=S)N(C)NC(=O)CC(=O)NN(C)C(=S)c2ccc(OC)cc2)cc1
> 100 µM

Using the record for O=S(=O)(O)c1cc(S(=O)(=O)O)c2c(Nc3ccnc4ccccc34)ccc(S(=O)(=O)O)c2c1 , state its measured TGI.
> 100 µM

# return recorded TGI for entry COc1ccc(/C=C2\COc3ccc(O)c(O)c3C2=O)cc1
23.6 µM

Supply reported TGI belonging to this compound: CC(C)N(CCCNC(=O)Nc1ccc(C(C)(C)C)cc1)C[C@H]1O[C@@H](n2ccc3c(N)ncnc32)[C@H](O)[C@@H]1O
> 100 µM

Give the measured TGI for COc1cc(O)c2c(c1)OCC1(Cc3cc(OC)c(OC)cc31)C2=O (stereo unspecified)
> 100 µM

Identify measured TGI corresponding to Cn1c(-c2ccccc2)cc(-c2cccs2)c1-c1ccsc1
> 100 µM

Supply recorded TGI for Cc1cc2cn3c4ccc(O)cc4nc(N)c3c2cc1C here.
5.85 µM

Identify measured TGI corresponding to ONCCCn1cnc2c(NC3CC3)ncnc21
> 100 µM

Give recorded TGI. Fc1cccc(C2SCC3=Nc4ccccc4CN32)c1 (stereo unspecified)
> 100 µM

Read off the recorded TGI for COc1ccc2c(c1OC)-c1c(c3ccc([N+](=O)[O-])cc3c(=O)n1CCCN)C2=O
10.5 µM

Using known records, supply TGI for C[CH2][Pb]([CH2]C)([CH2]C)[O]C(=O)COC
2.51 µM

Identify the reported TGI for the following entry. Cc1cccc2nc3cccc(C(=O)NCCC[N+](C)(CCCNC(=O)c4cccc5nc6cccc(C)c6nc45)Cc4ccc([N+](=O)[O-])n4C)c3nc12
> 100 µM

State, in one line, measured TGI of O=C(OCC1OC(n2cc(C(F)(F)F)c(=O)[nH]c2=O)CC1OC(=O)c1ccc([N+](=O)[O-])cc1)c1ccc([N+](=O)[O-])cc1 (stereo unspecified)
> 100 µM

Provide one value: measured TGI of O=c1ccccc(-c2ccc(Br)cc2)c1O
37.3 µM

Quickly give me recorded TGI for O=C(Nc1nnc(-c2ccc(Cl)cc2)o1)C(SC(=S)N1CCCCC1)c1ccccc1 (stereo unspecified)
> 100 µM

Look up and report measured TGI for this entry: CCOC(CNc1nn2c(C)nnc2s1)OCC
> 100 µM

Supply recorded TGI for Cn1cc(-c2csc(-c3c[nH]c4ccccc34)n2)c2cnccc21 here.
6.31 µM

Let me know recorded TGI for O=c1c(=O)c2cscc2c1=O , thanks.
8.6 µM

Supply TGI value. Item: CCSc1n/c(=C\c2ccc(N(C)C)cc2)c2nnnn12
> 100 µM
